EC50 listing for selected molecules.
Biological target: CHOK1 cells engineered to overexpress human CCR2 (Homo sapiens)
Construct: expressed in transfected cells; host or cells: CHOK1 cells
Assay: Antibody dependent cellular cytotoxicity (ADCC) reporter assay (Example 199)
Assay type: cell-based
Conditions: with anti-cotinine antibody SEQ ID NO: 11/12; CHOK1-human CCR2 target cells, Jurkat FcγRIIIa NFAT-luciferase reporter cells; 12-18 hours; read-out: ADCC Reporter Assay pEC50 (converted)
In your response, put the unit directly after the numeric value.

CC(C)N(C)[C@@H]1CC[C@H](N2CC[C@H](Nc3ncnc4ccc(C(F)(F)F)cc34)C2=O)[C@H](NC(=O)COCCNC(=O)CCOCCOCCNC(=O)CCNC(=O)[C@H]2CC(=O)N(C)[C@@H]2c2cccnc2)C1 | 1.41 nM

Short answer for CC(C)N(C)[C@@H]1CC[C@H](N2CC[C@H](Nc3ncnc4ccc(C(F)(F)F)cc34)C2=O)[C@H](NC(=O)CCOCCC(=O)N2CCC3(CCC(C(=O)NCCNC(=O)[C@H]4CC(=O)N(C)[C@@H]4c4cccnc4)CC3)CC2)C1 : EC50 was 1.26 nM

Record CC(C)N(C)[C@@H]1CC[C@H](N2CC[C@H](Nc3ncnc4ccc(C(F)(F)F)cc34)C2=O)[C@H](NC(=O)CCNC(=O)CCCOC[C@H]2CC[C@@H](COCCNC(=O)[C@H]3CC(=O)N(C)[C@@H]3c3cccnc3)CC2)C1 . Reported EC50: 0.867 nM

// EC50 lookup, molecule = CC(C)N(C)[C@@H]1CC[C@H](N2CC[C@H](Nc3ncnc4ccc(C(F)(F)F)cc34)C2=O)[C@H](NC(=O)[C@H]2C[C@@H](NC(=O)CCOCCOCCNC(=O)CNC(=O)[C@H]3CC(=O)N(C)[C@@H]3c3cccnc3)C2)C1 , result: 0.431 nM

====

Target: CHOK1 cells engineered to overexpress human CCR2 (Homo sapiens)
Construct: expressed in transfected cells; host or cells: CHOK1 cells
Assay: Antibody dependent cellular cytotoxicity (ADCC) reporter assay (Example 199)
Assay type: cell-based
Details: with anti-cotinine antibody SEQ ID NO: 11/12; CHOK1-human CCR2 target cells, Jurkat FcγRIIIa NFAT-luciferase reporter cells; 12-18 hours; read-out: ADCC Reporter Assay pEC50 (converted)
endpoint: EC50 (nM)
All answers are understood in nM, so give the number only.

Some solved cases for reference:
CC(C)N(C)[C@@H]1CC[C@H](N2CC[C@H](Nc3ncnc4ccc(C(F)(F)F)cc34)C2=O)[C@H](NC(=O)[C@H]2CC[C@H](N3CCN(C(=O)CCOCCOCCNC(=O)[C@H]4CC(=O)N(C)[C@@H]4c4cccnc4)CC3)CC2)C1 | 6.31
CC(C)N(C)[C@@H]1CC[C@H](N2CC[C@H](Nc3ncnc4ccc(C(F)(F)F)cc34)C2=O)[C@H](NC(=O)[C@H]2C[C@@H](NC(=O)CCOC[C@H]3CC[C@H](COCCNC(=O)[C@H]4CC(=O)N(C)[C@@H]4c4cccnc4)CC3)C2)C1 | 0.377
CC(C)N(C)[C@@H]1CC[C@H](N2CC[C@H](Nc3ncnc4ccc(C(F)(F)F)cc34)C2=O)[C@H](NC(=O)[C@H]2CC[C@H](c3ccc(C(=O)NCCOCCOCCNC(=O)[C@H]4CC(=O)N(C)[C@@H]4c4cccnc4)cc3)CC2)C1 | 3.16

Item CC(C)N(C)[C@@H]1CC[C@H](N2CC[C@H](Nc3ncnc4ccc(C(F)(F)F)cc34)C2=O)[C@H](NC(=O)c2ccnc(NCCOCCOCCOCCOCCNC(=O)[C@H]3CC(=O)N(C)[C@@H]3c3cccnc3)c2)C1 ; assay system CHOK1 cells engineered to overexpress human CCR2 (Homo sapiens); EC50 reported as 1.58
